System: HDM-specific T cells expanded from PBMCs of HDM-allergic individuals
Assay: T cell reactivity of peptides: IFN/IL-5 ELISPOT on in vitro expanded HDM-specific T cells
Assay type: cell-based, human
Conditions: individual peptides 10 μg/mL
Reported Metric: SFC/donor (SFC/donor)
# output: bare number, implied unit SFC/donor

For 94 (FTNLNTTYTRNRAVG; Immunogenic fragment) [compound 94] the substance record lists SFC/donor as 94

For 109 (HWNGDILSDWSSMRW; Immunogenic fragment) [compound 109] the substance record lists SFC/donor as 88

For 131 (PRIIRFNYDEQTNIL; Immunogenic fragment) [compound 131] the substance record lists SFC/donor as 160

For 54 (FKLVAMKFMMASEDL; Immunogenic fragment) [compound 54] the substance record lists SFC/donor as 6

For HKPIILGTLRNGATN (Immunogenic fragment) [Peptide 182, fragment of A0023 Der f] the substance record lists SFC/donor as 175

====

System: HDM-specific T cells expanded from PBMCs of HDM-allergic individuals
Assay: T cell reactivity of peptides: IFN/IL-5 ELISPOT on in vitro expanded HDM-specific T cells
Type: cell-based, human
Details: percentage of donors that produced a response against the peptide, 10 μg/mL
Reported Metric: % responder

For 120 (AHLYTLFYHVHKNGG; Immunogenic fragment) [compound 120] the substance record lists % responder as 5%

For KDSQYLQHFNNAIKQ (Immunogenic fragment) [Peptide 188, fragment of A0023 Der f] the substance record lists % responder as 10%

For 100 (TLRHKTLCMTARHYN; Immunogenic fragment) [compound 100] the substance record lists % responder as 10%

For 132 (GKPYYQFIYTTNNML; Immunogenic fragment) [compound 132] the substance record lists % responder as 15%

For 71 (LLRLEHFYQRFEDPS; Immunogenic fragment) [compound 71] the substance record lists % responder as 5%

For 142 (DKKFLFNTAVLFDRQ; Immunogenic fragment) [compound 142] the substance record lists % responder as 10%

For 50 (FIMLKPDAVQRGIVG; Immunogenic fragment) [compound 50] the substance record lists % responder as 5%

For HKPIILGTLRNGATN (Immunogenic fragment) [Peptide 182, fragment of A0023 Der f] the substance record lists % responder as 10%

For 56 (LKKHYADLAARPFFP; Immunogenic fragment) [compound 56] the substance record lists % responder as 5%

====

Tested on: HDM-specific T cells expanded from PBMCs of HDM-allergic individuals
Assay: T cell reactivity of peptides: IFN/IL-5 ELISPOT on in vitro expanded HDM-specific T cells
Assay type: cell-based, human
Conditions: percentage of donors that produced a response against the peptide, 10 μg/mL
Please provide measured % responder for the entries that follow.
# output: bare number, implied unit %

For 79 (GNDLKNLSSKVLPNL; Immunogenic fragment) [compound 79] the substance record lists % responder as 5

For 92 (GPKPEQVVQQYHNLI; Immunogenic fragment) [compound 92] the substance record lists % responder as 5

For 111 (SSMRWTIPSILNFNM; Immunogenic fragment) [compound 111] the substance record lists % responder as 10

For 138 (YHNLIGLPAMPPFWS; Immunogenic fragment) [compound 138] the substance record lists % responder as 5

For 80 (NLSSKVLPNLNVPYC; Immunogenic fragment) [compound 80] the substance record lists % responder as 5

====

Test system: HDM-specific T cells expanded from PBMCs of HDM-allergic individuals
Test: T cell reactivity of peptides: IFN/IL-5 ELISPOT on in vitro expanded HDM-specific T cells
Type: cell-based, human
Details: percentage of donors that produced a response against the peptide, 10 μg/mL
Reported Metric: % responder (%)
# output: bare number, implied unit %

For 152 (LRGAFSESTAVYPSA; Immunogenic fragment) [compound 152] the substance record lists % responder as 5

For 60 (HVAFNYAKMLDSAML; Immunogenic fragment) [compound 60] the substance record lists % responder as 5

For 95 (TTYTRNRAVGIPMDV; Immunogenic fragment) [compound 95] the substance record lists % responder as 15

For 68 (DGHGIVIRGRHLLLL; Immunogenic fragment) [compound 68] the substance record lists % responder as 5

For 69 (EPIISFTSIESNKQA; Immunogenic fragment) [compound 69] the substance record lists % responder as 5

For 63 (EFCPYLNISSCPSTE; Immunogenic fragment) [compound 63] the substance record lists % responder as 10

For 114 (YQLGAFYSFARNHND; Immunogenic fragment) [compound 114] the substance record lists % responder as 15

For 110 (ILSDWSSMRWTIPSI; Immunogenic fragment) [compound 110] the substance record lists % responder as 30

For 101 (RHYNDQLHYNLHNLY; Immunogenic fragment) [compound 101] the substance record lists % responder as 5

For LGTLRNGATNHFLSK (Immunogenic fragment) [Peptide 183, fragment of A0023 Der f] the substance record lists % responder as 20

For EPFMINQLAALIRRE (Immunogenic fragment) [Peptide 181, fragment of A0023 Der f/p] the substance record lists % responder as 10

For 128 (YQTNQSIIILEILGI; Immunogenic fragment) [compound 128] the substance record lists % responder as 10

For 126 (TQNINFINILGVPKL; Immunogenic fragment) [compound 126] the substance record lists % responder as 15

For 78 (ELTLGANQPISSLKN; Immunogenic fragment) [compound 78] the substance record lists % responder as 5

For 108 (NKRPFIISRATAPGH; Immunogenic fragment) [compound 108] the substance record lists % responder as 5

For 96 (LPDFIRNVLHKNGQK; Immunogenic fragment) [compound 96] the substance record lists % responder as 10

For 74 (TVSLRHLFQSFEITA; Immunogenic fragment) [compound 74] the substance record lists % responder as 5

For 117 (IRAARSSLQYRYRFL; Immunogenic fragment) [compound 117] the substance record lists % responder as 20

====

System: HDM-specific T cells expanded from PBMCs of HDM-allergic individuals
Assay: T cell reactivity of peptides: IFN/IL-5 ELISPOT on in vitro expanded HDM-specific T cells
Assay type: cell-based, human
Conditions: individual peptides 10 μg/mL
Reported Metric: SFC/donor (SFC/donor)
# output: bare number, implied unit SFC/donor

Readout SFC/donor for 146 (LLVIDTELGRLGMQI; Immunogenic fragment) [compound 146] , test system HDM-specific T cells expanded from PBMCs of HDM-allergic individuals, was 54

Readout SFC/donor for 121 (DIETQFMWGDSMLIA; Immunogenic fragment) [compound 121] , test system HDM-specific T cells expanded from PBMCs of HDM-allergic individuals, was 8

Readout SFC/donor for 62 (RHIINESYKKLLPKS; Immunogenic fragment) [compound 62] , test system HDM-specific T cells expanded from PBMCs of HDM-allergic individuals, was 4

Readout SFC/donor for 151 (FVYAKLRGAFSESTA; Immunogenic fragment) [compound 151] , test system HDM-specific T cells expanded from PBMCs of HDM-allergic individuals, was 9

Readout SFC/donor for LGTLRNGATNHFLSK (Immunogenic fragment) [Peptide 183, fragment of A0023 Der f] , test system HDM-specific T cells expanded from PBMCs of HDM-allergic individuals, was 163

Readout SFC/donor for 100 (TLRHKTLCMTARHYN; Immunogenic fragment) [compound 100] , test system HDM-specific T cells expanded from PBMCs of HDM-allergic individuals, was 12

Readout SFC/donor for 83 (DLSMTKLKRVRPSGF; Immunogenic fragment) [compound 83] , test system HDM-specific T cells expanded from PBMCs of HDM-allergic individuals, was 4

Readout SFC/donor for 132 (GKPYYQFIYTTNNML; Immunogenic fragment) [compound 132] , test system HDM-specific T cells expanded from PBMCs of HDM-allergic individuals, was 44

Readout SFC/donor for 125 (FFRSGSIIPIQGPQN; Immunogenic fragment) [compound 125] , test system HDM-specific T cells expanded from PBMCs of HDM-allergic individuals, was 5

====

Please provide measured SFC/donor for the entries that follow.
Test system: HDM-specific T cells expanded from PBMCs of HDM-allergic individuals
Test: T cell reactivity of peptides: IFN/IL-5 ELISPOT on in vitro expanded HDM-specific T cells
Type: cell-based, human
Conditions: individual peptides 10 μg/mL

For 60 (HVAFNYAKMLDSAML; Immunogenic fragment) [compound 60] the substance record lists SFC/donor as 75 SFC/donor

For YITFTEPFMINQLAA (Immunogenic fragment) [Peptide 180, fragment of A0023 Der f/p] the substance record lists SFC/donor as 29 SFC/donor

For 135 (IIQTKLSIFNDNDKS; Immunogenic fragment) [compound 135] the substance record lists SFC/donor as 3 SFC/donor

For 139 (ELNFKVYEDAAALAK; Immunogenic fragment) [compound 139] the substance record lists SFC/donor as 16 SFC/donor

For 74 (TVSLRHLFQSFEITA; Immunogenic fragment) [compound 74] the substance record lists SFC/donor as 25 SFC/donor

For 133 (QFIYTTNNMLIIQTK; Immunogenic fragment) [compound 133] the substance record lists SFC/donor as 47 SFC/donor

For KDSQYLQHFNNAIKQ (Immunogenic fragment) [Peptide 188, fragment of A0023 Der f] the substance record lists SFC/donor as 24 SFC/donor

For 51 (RGIVGEIIRRFEAKG; Immunogenic fragment) [compound 51] the substance record lists SFC/donor as 5 SFC/donor

For 115 (AFYSFVRNHNTDNAI; Immunogenic fragment) [compound 115] the substance record lists SFC/donor as 15 SFC/donor

For 61 (AMLQCRHVISESYRK; Immunogenic fragment) [compound 61] the substance record lists SFC/donor as 5 SFC/donor

For 95 (TTYTRNRAVGIPMDV; Immunogenic fragment) [compound 95] the substance record lists SFC/donor as 77 SFC/donor

For EPFMINQLAALIRRE (Immunogenic fragment) [Peptide 181, fragment of A0023 Der f/p] the substance record lists SFC/donor as 40 SFC/donor

For 152 (LRGAFSESTAVYPSA; Immunogenic fragment) [compound 152] the substance record lists SFC/donor as 5 SFC/donor

For 59 (GTEKQHVAFNYAKML; Immunogenic fragment) [compound 59] the substance record lists SFC/donor as 80 SFC/donor

For 122 (FMWGDSMLIAPILYP; Immunogenic fragment) [compound 122] the substance record lists SFC/donor as 2 SFC/donor

For 138 (YHNLIGLPAMPPFWS; Immunogenic fragment) [compound 138] the substance record lists SFC/donor as 3 SFC/donor

For 104 (LHNLYSLSMAMATNA; Immunogenic fragment) [compound 104] the substance record lists SFC/donor as 29 SFC/donor

For 89 (RAPFRKNTNWKRYTQ; Immunogenic fragment) [compound 89] the substance record lists SFC/donor as 9 SFC/donor
